# Protocol: Phase I study NCT02841540: plasma pharmacokinetics
# Assay type: in vivo, human
# Assay Setup: human, oral; 7.0 mg once daily, plasma, geometric mean (CV %)
Measured Metric: half-life
Just the number plus its unit, please.

Query: Quick check: half-life of C/C(=C\C=C\[C@@H](C)c1ccccn1)[C@H]1OC(=O)C[C@H](O)CC[C@@](C)(O)[C@@H](OC(=O)N2CCN(C)CC2)/C=C/[C@@H]1C ?
Response: 5.3 h

###

# Protocol: Phase I study NCT02841540: plasma pharmacokinetics
# Type: in vivo, human
# Assay Setup: human, oral; 2.0 mg once daily, plasma, median
Measured Metric: Tmax
Just the number plus its unit, please.

Query: Quick check: Tmax of C/C(=C\C=C\[C@@H](C)c1ccccn1)[C@H]1OC(=O)C[C@H](O)CC[C@@](C)(O)[C@@H](OC(=O)N2CCN(C)CC2)/C=C/[C@@H]1C [Compound 1] ?
Response: 2 h

###

# Protocol: Phase I study NCT02841540: plasma pharmacokinetics
# Format: in vivo, human
# Assay Setup: human; 20 mg once daily, plasma, median
# Protocol: Plasma samples for PK analyses were collected during Cycle 1 on Day 1 and Day 4 (pre-dose and 0.5, 1, 2, 4, 6, 8, 10, and 24 hours post-dose), and pre-dose and 4 hours post-dose on Cycle 1 on Day 15. PK analyses were conducted using Phoenix® VVinNonlin. […] Baseline splicing mutations were identified using the Focus:Myeloid™ Next Generation Sequencing (NGS) panel determined centrally by Cancer Genetics Inc. (Rutherford, NJ). […]
Measured Metric: Tmax (min)
Dear colleague, please return just the value in min, with no unit written.

Query: Quick check: Tmax of C/C(=C\C=C\[C@@H](C)c1ccccn1)[C@H]1OC(=O)C[C@H](O)CC[C@@](C)(O)[C@@H](OC(=O)N2CCN(C)CC2)/C=C/[C@@H]1C [Compound 1] ?
Response: 45

###

# Protocol: Phase I study NCT02841540: plasma pharmacokinetics
# Assay type: in vivo, human
# Assay Setup: human, oral; 14 mg once daily, plasma, geometric mean (CV %); read-out: AUC0-24
Measured Metric: AUC(0-t) (ng·h/mL)
Dear colleague, please return just the value in ng·h/mL, with no unit written.

Query: Quick check: AUC(0-t) of C/C(=C\C=C\[C@@H](C)c1ccccn1)[C@H]1OC(=O)C[C@H](O)CC[C@@](C)(O)[C@@H](OC(=O)N2CCN(C)CC2)/C=C/[C@@H]1C [Compound 1] ?
Response: 108

###

# Protocol: Phase I study NCT02841540: plasma pharmacokinetics
# Assay type: in vivo, human
# Assay Setup: human, oral; 1.0 mg once daily, plasma, geometric mean (CV %); read-out: AUC0-24
Measured Metric: AUC(0-t)
Just the number plus its unit, please.

Query: Quick check: AUC(0-t) of C/C(=C\C=C\[C@@H](C)c1ccccn1)[C@H]1OC(=O)C[C@H](O)CC[C@@](C)(O)[C@@H](OC(=O)N2CCN(C)CC2)/C=C/[C@@H]1C ?
Response: 4.89 ng·h/mL

###

# Protocol: Phase I study NCT02841540: plasma pharmacokinetics
# Type: in vivo, human
# Assay Setup: human, oral; 1.0 mg once daily, plasma, geometric mean (CV %)
Measured Metric: Cmax (ng/mL)
Dear colleague, please return just the value in ng/mL, with no unit written.

Query: Quick check: Cmax of C/C(=C\C=C\[C@@H](C)c1ccccn1)[C@H]1OC(=O)C[C@H](O)CC[C@@](C)(O)[C@@H](OC(=O)N2CCN(C)CC2)/C=C/[C@@H]1C [Compound 1] ?
Response: 0.835
